Where do the numbers come from? From BindingDB's records for doi:10.1016/S0960-894X(01)80832-5.

molecular target: Gastrin/cholecystokinin type B receptor (Cavia porcellus); test: Inhibitory activity against cholecystokinin-B (CCK-B) receptor in cortex of male hartley guinea pig.
The molecules listed here are annotated with their IC50.
MEASUREMENT_KIND: IC50 (nM)

| CHEMICAL_SMILES | MEASUREMENT_KIND | READOUT_UNITS | READOUT_NUMBER |
| --- | --- | --- | --- |
| Cc1cccc(NC(=O)N[C@@H]2C[C@H](c3ccccc3)C[C@H](c3cccc(C)c3)N(CC(=O)NC(C)(C)C)C2=O)c1 | IC50 | nM | 141 |
| COc1ccccc1[C@@H]1C[C@H](c2ccccc2)N(CC(=O)NC(C)(C)C)C(=O)[C@H](NC(=O)Nc2cccc(C)c2)C1 | IC50 | nM | 28 |
| Cc1ccccc1[C@@H]1C[C@H](c2ccccc2)N(CC(=O)NC(C)(C)C)C(=O)[C@H](NC(=O)Nc2cccc(C(F)(F)F)c2)C1 | IC50 | nM | 28 |
| Cc1cccc(NC(=O)N[C@@H]2C[C@H](c3ccccc3C)C[C@H](c3ccccc3)N(CC(=O)NC(C(C)(C)C)C(C)(C)C)C2=O)c1 | IC50 | nM | 453 |
| Cc1ccccc1[C@@H]1C[C@H](c2ccccc2)N(CC(=O)NC(C)(C)C)C(=O)[C@H](NC(=O)Nc2cccc(F)c2)C1 | IC50 | nM | 36 |
| Cc1cccc(NC(=O)N[C@@H]2C[C@H](c3ccc(F)cc3)C[C@H](c3ccccc3)N(CC(=O)NC(C)(C)C)C2=O)c1 | IC50 | nM | 65 |
| Cc1ccc([C@H]2C[C@@H](c3ccccc3)C[C@@H](NC(=O)Nc3cccc(C)c3)C(=O)N2CC(=O)NC(C)(C)C)cc1 | IC50 | nM | 560 |

====

molecular target: Gastrin/cholecystokinin type B receptor (Cavia porcellus); assay: Inhibitory activity against cholecystokinin-B (CCK-B) receptor in cortex of male hartley guinea pig.
pIC50: −log10 of the molar value.
Parameter threshold = 7. Response is 1 (yes) when pIC50 meets or exceeds it, else 0 (no).

| CHEMICAL_SMILES | QUALITATIVE_LABEL |
| --- | --- |
| Cc1ccc(NC(=O)CN2C(=O)[C@H](NC(=O)Nc3cccc(C)c3)C[C@H](c3ccccc3C)C[C@@H]2c2ccccc2)cc1 | 1 (yes) |
| Cc1cccc(NC(=O)N[C@@H]2C[C@H](c3ccccc3)C[C@H](c3ccc(F)cc3)N(CC(=O)NC(C)(C)C)C2=O)c1 | 0 (no) |
| CCc1cccc(NC(=O)N[C@@H]2C[C@H](c3ccccc3C)C[C@H](c3ccccc3)N(CC(=O)NC3(C)CCCCC3)C2=O)c1 | 1 (yes) |
| Cc1cccc(NC(=O)N[C@@H]2C[C@H](c3ccccc3C)C[C@H](c3ccccc3)N(CC(=O)NC(C)(C)C)C2=O)c1 | 1 (yes) |
| Cc1cccc(NC(=O)N[C@@H]2C[C@H](c3ccccc3)C[C@H](c3cccc(F)c3)N(CC(=O)NC(C)(C)C)C2=O)c1 | 1 (yes) |
| CCc1ccccc1[C@@H]1C[C@H](c2ccccc2)N(CC(=O)NC(C)(C)C)C(=O)[C@H](NC(=O)Nc2cccc(C)c2)C1 | 1 (yes) |

====

target: Gastrin/cholecystokinin type B receptor (Cavia porcellus); assay: Inhibitory activity against cholecystokinin-B (CCK-B) receptor in cortex of male hartley guinea pig.

| CHEMICAL_SMILES | READOUT_UNITS | IC50 |
| --- | --- | --- |
| Cc1cccc(NC(=O)N[C@@H]2C[C@H](c3ccccc3C)C[C@H](c3ccccc3)N(CC(=O)NC(C)(C)C)C2=O)c1 | µM | 0.527 |

====

target: Gastrin/cholecystokinin type B receptor (Cavia porcellus); experiment: Inhibitory activity against cholecystokinin-B (CCK-B) receptor in cortex of male hartley guinea pig.
Exam item: assign yes (1) to entries whose IC50 is below 90 nM and no (0) to entries at or above 90 nM. Note that a value of exactly 90 nM receives no (0).

| CHEMICAL_SMILES | QUALITATIVE_LABEL |
| --- | --- |
| Cc1ccccc1[C@@H]1C[C@H](c2ccccc2)N(CC(=O)NC(C)(C)C)C(=O)[C@H](NC(=O)Nc2cccc([N+](=O)[O-])c2)C1 | yes (1) |
| Cc1ccc([C@@H]2C[C@H](c3ccccc3)N(CC(=O)NC(C)(C)C)C(=O)[C@H](NC(=O)Nc3cccc(C)c3)C2)cc1 | no (0) |
| Cc1cccc(NC(=O)N[C@@H]2C[C@H](c3ccccc3C)C[C@H](c3ccccc3)N(CC(=O)NC3(C)CCCCC3)C2=O)c1 | no (0) |
| Cc1cccc(NC(=O)N[C@@H]2C[C@H](c3ccccc3C)C[C@H](c3ccccc3)N(CC(=O)Nc3ccccc3Cl)C2=O)c1 | yes (1) |
| COc1ccc(NC(=O)N[C@@H]2C[C@H](c3ccccc3C)C[C@H](c3ccccc3)N(CC(=O)NC(C)(C)C)C2=O)cc1 | yes (1) |
| Cc1cccc(NC(=O)N[C@@H]2C[C@H](c3ccccc3C)C[C@H](c3ccccc3)N(CC(=O)Nc3ccccc3C)C2=O)c1 | yes (1) |
